Items are presented alongside their recorded enrichment ratio.
B1: PhoQ; a variant is named by its letters at X, in order, P23837 (parent)
chain: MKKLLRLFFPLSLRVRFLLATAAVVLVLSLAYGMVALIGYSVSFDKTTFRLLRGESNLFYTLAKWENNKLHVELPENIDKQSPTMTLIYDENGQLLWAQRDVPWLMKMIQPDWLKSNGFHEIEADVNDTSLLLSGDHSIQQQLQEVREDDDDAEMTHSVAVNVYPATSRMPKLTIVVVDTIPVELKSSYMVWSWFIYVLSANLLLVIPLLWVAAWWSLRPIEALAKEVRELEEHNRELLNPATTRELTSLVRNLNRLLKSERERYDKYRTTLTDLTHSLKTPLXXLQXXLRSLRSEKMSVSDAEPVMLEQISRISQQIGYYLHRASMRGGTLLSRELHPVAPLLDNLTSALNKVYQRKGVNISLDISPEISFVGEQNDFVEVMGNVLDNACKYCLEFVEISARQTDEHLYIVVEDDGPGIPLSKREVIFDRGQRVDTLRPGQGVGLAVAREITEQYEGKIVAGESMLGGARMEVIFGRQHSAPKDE

# Variants of: B1
# assay.overview: enrichment ratio after two sorts for PhoP signalling (ratio (wild type AVST 3.29)); higher = more functional
# condition.set: with PhoP (E. coli)
In all, about 140,000 sequences were measured (“enrichment ratio after two sorts for PhoP signalling”: median about 0, highest 2% from about 11 on). The full list was thinned out, with the highest values kept by preference.

Field: example entries. Status: answers known.
> print(dat)
   variant.notation  recorded.endpoint  value.observed
1              YYHC   enrichment ratio          ≤ 0.25
2              HPEC   enrichment ratio          ≤ 0.25
3              TEHC   enrichment ratio            22.1

Ask: Param item = LWEC ; retrieve measured enrichment ratio.
Reply: ≤ 0.25

Ask: Any idea what enrichment ratio was measured for TEYC ?
Reply: 12.6

Ask: Given KSYC , state its recorded enrichment ratio.
Reply: ≤ 0.25

Ask: Returns the measured enrichment ratio for the input variant. Input: IPQD
Reply: ≤ 0.25

Ask: Entry IHWA has what enrichment ratio?
Reply: ≤ 0.25

Ask: // query enrichment ratio value for entry YTYC
Reply: ≤ 0.25

Ask: Dear colleague, I am looking for the recorded enrichment ratio of the following variant: TELP
Reply: ≤ 0.25

Ask: What enrichment ratio value was documented for this variant, TESC ?
Reply: 13.3
